Test system: Ramos B cells
Test: BCR-stimulated calcium flux in Ramos B cells
Format: cell-based
Conditions: Homo sapiens, BCR (anti-IgM), read-out: IC50, Ca2+ flux
Endpoint: pIC50
Please note pIC50 is a logarithmic value: minus log10 of concentration in mol/L. Answer with that number alone.

Exercise: Find pIC50 (Ramos B cells) for the entry Cc1c(-c2c(F)cc(C(N)=O)c3[nH]c4c(c23)CC[C@H](C(C)(C)O)C4)cccc1-n1c(=O)c2cccc(F)c2n(C)c1=O
Key: 8.05

---

Tested on: human peripheral blood mononuclear cells
Assay: IC-stimulated TNF-α production in peripheral blood mononuclear cells
Type: cell-based
Settings: PBMC, FcγR (immune complex)
Method: TNF-α and IL-6 levels were measured using enzyme-linked immunosorbent assay (ELISA; TNF-α OptEIA, BD Biosciences; IL-6 OptEIA, BD Biosciences). For analogous experiments measuring the effect of Toll-like receptor 4 stimulation on these endpoints, lipopolysaccharide (Sigma-Aldrich, St. Louis, MO, USA) was used as the stimulus.
Endpoint: pIC50
Please note pIC50 is a logarithmic value: minus log10 of concentration in mol/L. Answer with that number alone.

Exercise: Using the record for Cc1c(-c2c(F)cc(C(N)=O)c3[nH]c4c(c23)CC[C@H](C(C)(C)O)C4)cccc1-n1c(=O)c2cccc(F)c2n(C)c1=O , report its pIC50.
Key: 8.52

---

Target: CSK (Homo sapiens, UniProt P41240)
Sequence (P41240 whole entry, species assumed): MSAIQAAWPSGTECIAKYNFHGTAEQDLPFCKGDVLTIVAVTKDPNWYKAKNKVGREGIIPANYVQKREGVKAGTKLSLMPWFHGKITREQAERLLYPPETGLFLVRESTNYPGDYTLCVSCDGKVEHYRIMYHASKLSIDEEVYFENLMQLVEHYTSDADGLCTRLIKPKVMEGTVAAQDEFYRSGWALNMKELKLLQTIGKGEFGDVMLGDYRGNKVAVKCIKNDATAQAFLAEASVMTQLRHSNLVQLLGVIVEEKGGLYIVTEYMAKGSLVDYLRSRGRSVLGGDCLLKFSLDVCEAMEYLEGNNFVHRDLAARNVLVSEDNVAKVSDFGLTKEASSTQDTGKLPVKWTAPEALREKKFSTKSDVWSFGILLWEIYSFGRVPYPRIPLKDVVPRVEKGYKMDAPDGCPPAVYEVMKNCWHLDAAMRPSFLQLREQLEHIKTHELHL
Endpoint: pIC50
Please note pIC50 is a logarithmic value: minus log10 of concentration in mol/L. Answer with that number alone.

Exercise: Find pIC50 (CSK (Homo sapiens, UniProt P41240)) for the entry Cc1c(-c2c(F)cc(C(N)=O)c3[nH]c4c(c23)CC[C@H](C(C)(C)O)C4)cccc1-n1c(=O)c2cccc(F)c2n(C)c1=O
Key: 6.83

---

Molecular target: IGF1R (Homo sapiens)
Sequence (P08069 31-1367, species assumed): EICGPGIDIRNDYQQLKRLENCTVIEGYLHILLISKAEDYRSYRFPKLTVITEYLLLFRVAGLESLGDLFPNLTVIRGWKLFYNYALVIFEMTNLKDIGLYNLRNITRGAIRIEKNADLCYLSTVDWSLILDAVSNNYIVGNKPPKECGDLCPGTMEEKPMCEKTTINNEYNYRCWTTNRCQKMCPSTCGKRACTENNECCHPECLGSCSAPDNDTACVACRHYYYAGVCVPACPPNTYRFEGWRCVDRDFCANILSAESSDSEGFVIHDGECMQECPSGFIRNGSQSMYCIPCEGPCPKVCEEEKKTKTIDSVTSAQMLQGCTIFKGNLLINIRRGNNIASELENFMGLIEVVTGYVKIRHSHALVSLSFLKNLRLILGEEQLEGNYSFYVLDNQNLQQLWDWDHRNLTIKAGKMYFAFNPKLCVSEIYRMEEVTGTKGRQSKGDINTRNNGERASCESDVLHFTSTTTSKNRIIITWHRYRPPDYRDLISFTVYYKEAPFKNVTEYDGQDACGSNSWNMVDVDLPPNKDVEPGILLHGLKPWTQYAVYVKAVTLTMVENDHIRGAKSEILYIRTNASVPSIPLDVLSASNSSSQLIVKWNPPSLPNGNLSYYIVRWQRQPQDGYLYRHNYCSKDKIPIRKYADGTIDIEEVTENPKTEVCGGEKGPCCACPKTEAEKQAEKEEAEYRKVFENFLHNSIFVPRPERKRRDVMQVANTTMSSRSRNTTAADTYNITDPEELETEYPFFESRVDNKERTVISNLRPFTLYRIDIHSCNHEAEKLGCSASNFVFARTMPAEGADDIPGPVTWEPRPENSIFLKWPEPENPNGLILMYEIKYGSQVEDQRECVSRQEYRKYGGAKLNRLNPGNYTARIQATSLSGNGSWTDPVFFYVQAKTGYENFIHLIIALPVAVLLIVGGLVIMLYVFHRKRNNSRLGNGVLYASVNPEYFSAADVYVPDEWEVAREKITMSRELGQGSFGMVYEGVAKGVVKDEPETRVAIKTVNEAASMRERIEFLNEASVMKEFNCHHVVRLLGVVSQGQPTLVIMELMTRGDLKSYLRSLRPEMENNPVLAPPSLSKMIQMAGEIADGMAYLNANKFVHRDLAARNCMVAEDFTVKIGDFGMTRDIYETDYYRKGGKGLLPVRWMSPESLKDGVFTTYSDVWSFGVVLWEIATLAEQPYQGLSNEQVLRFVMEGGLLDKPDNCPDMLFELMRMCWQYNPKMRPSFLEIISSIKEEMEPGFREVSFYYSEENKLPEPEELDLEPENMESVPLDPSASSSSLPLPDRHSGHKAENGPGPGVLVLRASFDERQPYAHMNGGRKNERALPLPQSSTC
Endpoint: IC50 (nM)
Use nM as the unit, but write only the number.

Exercise: Using the record for Cc1c(-c2c(F)cc(C(N)=O)c3[nH]c4c(c23)CC[C@H](C(C)(C)O)C4)cccc1-n1c(=O)c2cccc(F)c2n(C)c1=O , report its IC50.
Key: 247

---

Biological target: UniProtKB P06239
Sequence (P06239 whole entry, species assumed): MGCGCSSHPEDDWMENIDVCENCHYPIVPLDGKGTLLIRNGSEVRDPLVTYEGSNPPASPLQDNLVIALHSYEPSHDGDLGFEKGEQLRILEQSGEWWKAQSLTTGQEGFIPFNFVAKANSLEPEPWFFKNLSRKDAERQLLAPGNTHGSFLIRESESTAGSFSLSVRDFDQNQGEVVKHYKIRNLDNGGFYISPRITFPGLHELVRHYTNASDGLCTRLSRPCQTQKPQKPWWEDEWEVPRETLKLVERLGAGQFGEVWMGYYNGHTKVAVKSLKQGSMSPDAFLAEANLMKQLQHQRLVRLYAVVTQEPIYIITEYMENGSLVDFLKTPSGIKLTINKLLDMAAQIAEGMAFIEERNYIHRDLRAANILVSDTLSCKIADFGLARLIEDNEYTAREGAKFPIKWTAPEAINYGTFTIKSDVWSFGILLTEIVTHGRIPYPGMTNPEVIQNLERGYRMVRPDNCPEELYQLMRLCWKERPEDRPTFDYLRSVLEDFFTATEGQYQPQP
Endpoint: IC50
Remember to quote the unit after the number.

Exercise: Find IC50 (UniProtKB P06239) for the entry Cc1c(-c2c(F)cc(C(N)=O)c3[nH]c4c(c23)CC[C@H](C(C)(C)O)C4)cccc1-n1c(=O)c2cccc(F)c2n(C)c1=O
Key: 71 nM

---

Tested on: human peripheral blood B cells
Test: BCR-stimulated CD86 expression on human peripheral blood B cells
Format: cell-based
Details: B-cell, BCR (anti-IgM)
Endpoint: IC50 (nM)
Use nM as the unit, but write only the number.

Exercise: Using the record for Cc1c(-c2c(F)cc(C(N)=O)c3[nH]c4c(c23)CC[C@H](C(C)(C)O)C4)cccc1-n1c(=O)c2cccc(F)c2n(C)c1=O [BMS-986142] , report its IC50.
Key: 4
